recorded_endpoint: melting point

>>> df
                              line_notation         result
0  CS(=O)(=O)c1ccc(-c2ssc(=S)c2-c2ccc(F)c(F)c2)cc1  193 to 194 °C
1  CS(=O)(=O)c1ccc(-c2ssc(=S)c2-c2ccc(Br)cc2)c(Cl)c1  194 to 195 °C
2  CS(=O)(=O)c1ccc(-c2ssc(=S)c2-c2ccc(F)cc2)cc1  195 to 197 °C
3  COc1cccc(-c2c(-c3ccc(S(C)(=O)=O)cc3)ssc2=S)c1  212 to 213 °C
4  CS(=O)(=O)c1ccc(-c2ssc(=S)c2-c2ccccc2)cc1  200 to 202 °C
5  COc1ccc(OC)c(-c2c(-c3ccc(S(C)(=O)=O)cc3)ssc2=S)c1  176 to 177 °C
6  CC(=O)Oc1ccc(-c2c(-c3ccc(F)c(F)c3)ssc2=S)cc1  147 to 149 °C
7  CS(=O)(=O)c1ccc(-c2ssc(=S)c2-c2ccc(F)cc2Cl)cc1  184 to 185 °C
8  COc1ccc(-c2c(-c3ccc(S(C)(=O)=O)cc3Cl)ssc2=S)cc1  192 to 193 °C

###

recorded_endpoint: melting point

In [3]: df
Out[3]:
                                   compound         result
0  CS(=O)(=O)c1ccc(-c2ssc(=S)c2-c2ccc(Br)cc2)cc1 [Example 40]  238 to 240 °C
1  CS(=O)(=O)c1ccc(-c2[nH][nH]c(=S)c2-c2ccc(Cl)cc2)cc1 [Example 82]  211 to 213 °C
2  CS(=O)(=O)c1ccc(-c2ssc(=S)c2-c2ccc(Cl)cc2Cl)cc1 [Example 58]  176 to 177 °C
3  CS(=O)(=O)c1ccc(-c2ssc(=S)c2-c2ccc(Cl)cc2)cc1 [Example 45]  233 to 235 °C
4  CS(=O)(=O)c1ccc(-c2ssc(=S)c2-c2ccccc2[N+](=O)[O-])cc1 [Example 54]  170 to 171 °C
5  CS(=O)(=O)c1ccc(-c2ssc(=S)c2-c2ccccc2C(F)(F)F)cc1 [Example 44]  240 to 242 °C
6  CS(=O)(=O)c1ccc(-c2ssc(=S)c2-c2ccc(F)cc2F)cc1 [Example 63]  148 to 149 °C
7  CC(=O)Oc1ccc(-c2c(-c3ccc(S(C)(=O)=O)c(F)c3)ssc2=S)cc1 [Example 79]  200 to 201 °C
8  CS(=O)(=O)c1ccc(-c2ssc(=S)c2-c2ccncc2)cc1 [Example 47]  245 to 247 °C

###

- target_under_test: COX-1 (Homo sapiens)
- Construct: host or cells: U-937 human lymphoma cells
- Sequence (P23219 24-599): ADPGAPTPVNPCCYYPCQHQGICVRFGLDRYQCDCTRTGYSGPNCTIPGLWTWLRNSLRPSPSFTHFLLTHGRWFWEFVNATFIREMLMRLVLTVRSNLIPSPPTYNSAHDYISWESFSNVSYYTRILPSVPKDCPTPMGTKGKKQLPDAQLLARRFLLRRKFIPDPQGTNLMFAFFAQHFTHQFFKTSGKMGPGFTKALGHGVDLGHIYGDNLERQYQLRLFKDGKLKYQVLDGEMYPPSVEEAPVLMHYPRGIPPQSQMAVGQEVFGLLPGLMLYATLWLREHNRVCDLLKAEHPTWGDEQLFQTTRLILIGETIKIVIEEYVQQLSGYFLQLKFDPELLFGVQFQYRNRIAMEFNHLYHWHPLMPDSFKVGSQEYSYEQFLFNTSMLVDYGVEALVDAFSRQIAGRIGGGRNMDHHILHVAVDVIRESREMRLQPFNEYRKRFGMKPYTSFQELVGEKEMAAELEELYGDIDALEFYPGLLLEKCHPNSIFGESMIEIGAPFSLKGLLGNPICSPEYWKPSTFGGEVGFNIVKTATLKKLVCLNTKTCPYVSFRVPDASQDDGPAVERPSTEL
- test_name: Assay for the COX-1 inhibitory activity using U-937 (PGE2 inhibition)
- Type: cell-based
- assay_conditions: test compound 1 μM; U-937 human lymphoma cells; arachidonic acid substrate; PGE2 quantified; read-out: Cyclooxygenase (COX) Inhibition (%) COX-1 (1 μM)
recorded_endpoint: inhibition at 1 µM (%)

In [3]: df
Out[3]:
                              line_notation  result_number
0  CS(=O)(=O)c1ccc(-c2ssc(=S)c2-c2cccc(C(F)(F)F)c2)cc1           27.6
1  CS(=O)(=O)c1ccc(-c2ssc(=S)c2-c2ccc(Cl)c(Cl)c2)cc1           24.6
2  COc1cccc(-c2c(-c3ccc(S(C)(=O)=O)cc3)ssc2=S)c1           26.7
3   COc1ccc(-c2c(-c3ccc(F)c(F)c3)ssc2=S)cc1           26.6
4  CS(=O)(=O)c1ccc(-c2ssc(=S)c2-c2ccc(Cl)cc2)cc1           19.6
5  CS(=O)(=O)c1ccc(-c2ssc(=S)c2-c2ccccc2)cc1           24.5

###

- target_under_test: COX-1 (Homo sapiens)
- Construct: host or cells: U-937 human lymphoma cells
- test_name: Assay for the COX-1 inhibitory activity using U-937 (PGE2 inhibition)
- Format: cell-based
- assay_conditions: test compound 1 μM; U-937 human lymphoma cells; arachidonic acid substrate; PGE2 quantified; read-out: Cyclooxygenase (COX) Inhibition (%) COX-1 (1 μM)
- Description: The collected cells were diluted with HBSS (×1, Hank's balanced salt solution) to a concentration of 1×10^6 cells/ml. 1 ml of the dilute cell solution was placed into each well of 12-well plates. […] The concentration of PGE2 in the collected cells and the supernatant was quantified by means of a monoclonal kit (Cayman Chemicals). The percentages of PGE2 inhibition in a group of the test compound-treated cells in relation to a group of the DMSO-treated cells were calculated. […]
Measured inhibition at 1 µM, listed per entry.
recorded_endpoint: inhibition at 1 µM

>>> print(df.to_string())
                                    molecule   recorded_endpoint  result
 0  CC(C)Oc1ccc(-c2c(-c3ccc(S(C)(=O)=O)cc3)ssc2=S)cc1 [Example 67]  inhibition at 1 µM   27.5%
 1  CS(=O)(=O)c1ccc(-c2ssc(=S)c2-c2ccc3ccccc3c2)cc1 [Example 65]  inhibition at 1 µM   22.6%
 2  CS(=O)(=O)c1ccc(-c2ssc(=S)c2-c2ccc(F)c(F)c2)cc1 [Example 64]  inhibition at 1 µM   21.6%
 3  CS(=O)(=O)c1ccc(-c2ssc(=S)c2-c2ccc(F)cc2F)cc1 [Example 63]  inhibition at 1 µM   20.3%
 4  COc1ccc(OC)c(-c2c(-c3ccc(S(C)(=O)=O)cc3)ssc2=S)c1 [Example 51]  inhibition at 1 µM   27.6%
 5  CCOc1ccc(-c2c(-c3ccc(S(C)(=O)=O)cc3Cl)ssc2=S)cc1 [Example 70]  inhibition at 1 µM   17.5%
 6  CCCOc1ccc(-c2c(-c3ccc(S(C)(=O)=O)cc3)ssc2=S)cc1 [Example 68]  inhibition at 1 µM   25.5%
 7  CS(=O)(=O)c1ccc(-c2ssc(=S)c2-c2ccccc2F)cc1 [Example 62]  inhibition at 1 µM   26.6%
 8  CS(=O)(=O)c1ccc(-c2[nH][nH]c(=S)c2-c2ccc(Cl)cc2)cc1 [Example 82]  inhibition at 1 µM   24.3%
 9  CS(=O)(=O)c1ccc(-c2ssc(=S)c2-c2ccc(Cl)cc2Cl)cc1 [Example 58]  inhibition at 1 µM   24.2%
10  CS(=O)(=O)c1ccc(-c2ssc(=S)c2-c2ccccc2Cl)cc1 [Example 57]  inhibition at 1 µM   20.7%
11  CS(=O)(=O)c1ccc(-c2ssc(=S)c2-c2cccnc2)cc1 [Example 48]  inhibition at 1 µM   23.6%
12  CS(=O)(=O)c1ccc(-c2ssc(=S)c2-c2ccc(Br)cc2)c(Cl)c1 [Example 72]  inhibition at 1 µM   28.1%
13  COc1ccc(-c2c(-c3ccc(S(C)(=O)=O)cc3)ssc2=S)cc1OC [Example 60]  inhibition at 1 µM   26.5%
14  CCOc1ccc(-c2c(-c3ccc(S(C)(=O)=O)cc3)ssc2=S)cc1 [Example 39]  inhibition at 1 µM     15%
15  CS(=O)(=O)c1ccc(-c2ssc(=S)c2-c2ccc(Br)cc2)cc1 [Example 40]  inhibition at 1 µM   18.3%
16  CS(=O)(=O)c1ccc(-c2ssc(=S)c2-c2ccccc2[N+](=O)[O-])cc1 [Example 54]  inhibition at 1 µM   22.4%
17  CS(=O)(=O)c1ccc(-c2ssc(=S)c2-c2ccncc2)cc1 [Example 47]  inhibition at 1 µM   22.5%

###

- target_under_test: COX-2 (Mus musculus)
- Construct: host or cells: RAW 264.7 cells, pre-treated with aspirin, then induced with interferon and LPS
- Sequence (Q05769 18-604): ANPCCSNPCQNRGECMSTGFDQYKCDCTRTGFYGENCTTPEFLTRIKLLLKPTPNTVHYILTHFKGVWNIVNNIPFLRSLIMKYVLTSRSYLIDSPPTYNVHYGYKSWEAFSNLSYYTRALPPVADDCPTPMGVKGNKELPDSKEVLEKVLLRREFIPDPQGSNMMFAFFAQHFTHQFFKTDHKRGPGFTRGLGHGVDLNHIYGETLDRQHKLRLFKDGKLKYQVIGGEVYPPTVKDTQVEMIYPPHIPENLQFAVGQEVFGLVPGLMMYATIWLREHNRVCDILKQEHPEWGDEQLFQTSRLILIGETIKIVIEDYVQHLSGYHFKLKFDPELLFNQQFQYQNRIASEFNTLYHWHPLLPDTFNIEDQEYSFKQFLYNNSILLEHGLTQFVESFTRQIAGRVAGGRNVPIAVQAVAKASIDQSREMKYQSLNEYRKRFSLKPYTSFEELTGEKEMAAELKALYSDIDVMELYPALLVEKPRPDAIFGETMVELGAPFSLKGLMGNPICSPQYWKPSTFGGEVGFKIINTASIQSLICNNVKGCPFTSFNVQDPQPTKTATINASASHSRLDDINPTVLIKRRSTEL
- test_name: Assay for the COX-2 inhibitory activity using Raw 264.7 cell line (PGE2 inhibition)
- Format: cell-based
- assay_conditions: RAW264.7; test compound 30 nM; RAW 264.7 cells; aspirin pre-treated, interferon + LPS 18 hours; PGE2 by EIA; read-out: Cyclooxygenase (COX) Inhibition (%) COX-2 (30 nM)
Rule: inhibition at 0.03 µM of 20% or more gives class 1; anything lower gives class 0.

                               line_notation    label
 0  CS(=O)(=O)c1ccc(-c2ssc(=S)c2-c2ccc(F)cc2F)cc1  class 1
 1  CS(=O)(=O)c1ccc(-c2ssc(=S)c2-c2ccc(Cl)cc2)cc1  class 1
 2  CS(=O)(=O)c1ccc(-c2[nH][nH]c(=S)c2-c2ccc(Cl)cc2)cc1  class 1
 3  CC(C)Oc1ccc(-c2c(-c3ccc(S(C)(=O)=O)cc3)ssc2=S)cc1  class 1
 4  COc1ccc(-c2c(-c3ccc(S(C)(=O)=O)cc3)ssc2=S)cc1OC  class 0
 5  CCOc1ccc(-c2c(-c3ccc(S(C)(=O)=O)cc3Cl)ssc2=S)cc1  class 1
 6  CS(=O)(=O)c1ccc(-c2ssc(=S)c2-c2ccncc2)cc1  class 1
 7  CCCOc1ccc(-c2c(-c3ccc(S(C)(=O)=O)cc3)ssc2=S)cc1  class 1
 8  COc1ccc(-c2c(-c3ccc(S(C)(=O)=O)cc3)ssc2=S)cc1  class 1
 9  CC(=O)Oc1ccc(-c2c(-c3ccc(S(C)(=O)=O)cc3)ssc2=S)cc1  class 1
10  COc1cccc(-c2c(-c3ccc(S(C)(=O)=O)cc3)ssc2=S)c1  class 1
11  Cc1cc(C)cc(-c2c(-c3ccc(S(C)(=O)=O)cc3)ssc2=S)c1  class 0
